Where do these numbers come from? They come from PubChem BioAssay (NCI).

# testDescription: NCI Yeast Anticancer Drug Screen. Data for the mec2-1 strain (AID 157)
# cond: S. cerevisiae mec2-1 strain, at 50.0 µM, stronger effect = higher value
This is part of a sample that, as a whole, favours compounds with a hit. Of some 79,000 tested, about 15% had one in any assay. The source made the active and inactive calls. No stated cut-off is given here; in the data, active means growth inhibition above about 70%; inactive means the rest.
propertyMeasured: growth inhibition

Sample answers from the record:
>  <molecule>
COC(c1ccccc1)c1ccccc1

>  <propertyMeasured>
growth inhibition

>  <experimentalValue>
4.9% (inactive)

$$$$
>  <molecule>
COc1ccc(/C=C/C2=CC(=O)CC(/C=C/c3ccc(OC)c(OC)c3)C2)cc1OC (stereo unspecified)

>  <propertyMeasured>
growth inhibition

>  <experimentalValue>
46.5% (inactive)

$$$$

input: What value of growth inhibition has been recorded for this entry: "Cc1cc2c(=O)c(C)c[nH]c2cc1Cl"
output: 5.2% (inactive)

input: What value of growth inhibition has been recorded for this entry: "C[N+](C)(CCCN1C(=O)c2cccc3c(Br)ccc(c23)C1=O)Cc1ccc(Cl)c(Cl)c1"
output: 98% (active)

input: What value of growth inhibition has been recorded for this entry: C=C1C(=O)OC2/C=C(\C)CC(O)/C=C(/C)CC(OC(=O)C(O)(CO)C(C)S)C12 (stereo unspecified)
output: 6.55% (inactive)

input: What value of growth inhibition has been recorded for this entry: "CSc1c(C(=O)Nc2ccc(C)cc2)c(N)nn1-c1ccccc1"
output: -12.3% (inactive)

input: What value of growth inhibition has been recorded for this entry: "NNC(=O)Cc1ccc2ccccc2c1"
output: -32.1% (inactive)

input: What value of growth inhibition has been recorded for this entry: "Cc1ccc2c(O)c3c(cc2c1O)C(=O)c1ccccc1C3=O"
output: 0.75% (inactive)

input: What value of growth inhibition has been recorded for this entry: C1=C/CCC2OC2CC/C=C/CC/1 (stereo unspecified)
output: -55.2% (inactive)

input: What value of growth inhibition has been recorded for this entry: OC1c2ccccc2OC2(N3CCCC3)CCCCC12 (stereo unspecified)
output: -29.9% (inactive)
